System: L. donovani amastigotes in THP-1 macrophages, DAPI imaging, 72 h
procedure-summary: L. donovani intracellular amastigote growth inhibitors, imaging, THP-1 host macrophages, single concentration (AID 977614);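 note: signal is the parasite per host cell ratio from DAPI stained kinetoplasts and nuclei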
Active and inactive are the calls of the source.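 Rule for the calls: active = parasite count per well reduced by over 3 SD from the mean, with host cell number above 80% of untreated; inactive = the rest.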
Quick reference: AC50 of the listed items.

| chemical-smiles | AC50 |
| --- | --- |
| CCNC[C@H]1[C@@H](c2ccccc2)[C@@H](CO)N1C(=O)Cc1ccccn1 | > 10 µM (inactive) |
| O=C(Nc1cccc(F)c1)N1C[C@H]2[C@@H](c3ccccc31)[C@H](CO)N2C(=O)Cc1ccccn1 | > 10 µM (inactive) |
| CCN(C[C@@H]1N[C@@H](CO)[C@H]1c1ccccc1)C(=O)c1ccncc1 | > 10 µM (inactive) |
| COCC(=O)N1C[C@@H]2[C@H](c3ccccc31)[C@@H](CO)N2C(=O)c1ccccc1F | > 10 µM (inactive) |
| COc1ccc(C(=O)N2C[C@@H]3[C@H](c4ccccc42)[C@@H](CO)N3Cc2ccccc2Cl)cc1 | > 10 µM (inactive) |
| C[C@@H]1CN([C@H](C)CO)C(=O)CCCn2nncc2CO[C@@H]1CN(C)C(=O)Nc1ccc2c(c1)OCCO2 | > 10 µM (inactive) |
| COc1ccc(NC(=O)N(C)C[C@@H]2OCc3cnnn3CCCC(=O)N([C@H](C)CO)C[C@H]2C)c(OC)c1 | > 10 µM (inactive) |
| C[C@@H]1CN([C@@H](C)CO)C(=O)CCCn2cc(nn2)CO[C@@H]1CN(C)C(=O)Nc1cccc(C(F)(F)F)c1 | > 10 µM (inactive) |
| CC(=O)N1[C@H](CN(CC2CCC2)C(=O)CN(C)C)[C@@H](c2ccccc2)[C@@H]1CO | > 10 µM (inactive) |
| CCC(=O)N1[C@H](CO)[C@H](c2ccc(-c3cccc(OC)c3)cc2)[C@@H]1CNC(C)=O | > 10 µM (inactive) |
| CCc1csc(N2[C@H](CO)[C@H](c3ccccc3)[C@@H]2CN(C)C(=O)C2CCC2)n1 | > 10 µM (inactive) |
| C[C@H](CO)N1C[C@H](C)[C@@H](CN(C)Cc2ccccc2C(=O)O)OCc2cnnn2CCCC1=O | > 10 µM (inactive) |
| CC(=O)N1[C@H](CO)[C@@H](c2ccccc2)[C@H]1CN(CC(C)C)C(=O)c1ccccn1 | > 10 µM (inactive) |
| CN(C[C@H]1N[C@@H](CO)[C@H]1c1ccc(-c2ccc(F)cc2)cc1)C(=O)C1CCC1 | > 10 µM (inactive) |
| C[C@H]1CN([C@@H](C)CO)C(=O)CCCn2nncc2CO[C@H]1CN(C)C(=O)CCC(F)(F)F | > 10 µM (inactive) |
| C/C=C/c1ccc([C@H]2[C@@H](CO)N(S(=O)(=O)CC)[C@H]2CN(C)C(=O)CC)cc1 | > 10 µM (inactive) |
| O=C(c1ccncc1)N1C[C@@H]2[C@H](c3ccccc31)[C@H](CO)N2Cc1ccccc1F | > 10 µM (inactive) |

###

System: L. donovani amastigotes in THP-1 macrophages, DAPI imaging, 72 h
procedure-summary: L. donovani intracellular amastigote growth inhibitors, imaging, THP-1 host macrophages, single concentration (AID 977614);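 note: signal is the parasite per host cell ratio from DAPI stained kinetoplasts and nuclei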
Active and inactive are the calls of the source.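 The calls were made as follows: active = parasite count per well reduced by over 3 SD from the mean, with host cell number above 80% of untreated; inactive = the rest.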
Quick reference: AC50 of the listed items.

| chemical-smiles | AC50 |
| --- | --- |
| C/C=C/c1ccc([C@@H]2[C@H](CO)N[C@H]2CNS(=O)(=O)c2ccccc2)cc1 | > 10 µM (inactive) |
| O=C(Cc1cccnc1)N1[C@H](CO)[C@H](c2ccccc2)[C@@H]1CNCC1CCC1 | > 10 µM (inactive) |
| CCN(C[C@@H]1[C@@H](c2ccccc2)[C@H](CO)N1CC1CC1)C(=O)c1ccccn1 | > 10 µM (inactive) |
| C[C@H]1CN([C@@H](C)CO)C(=O)CCCn2nncc2CO[C@H]1CN(C)C(=O)Oc1cccc2ccccc12 | > 10 µM (inactive) |
| CNC[C@@H]1OCc2cn(nn2)CCCC(=O)N([C@H](C)CO)C[C@H]1C | > 10 µM (inactive) |
| C[C@H](CO)N1C[C@H](C)[C@H](CN(C)S(=O)(=O)c2ccccc2C#N)OCc2cnnn2CCCC1=O | > 10 µM (inactive) |
| COCC(=O)N1[C@H](CO)[C@H](c2ccc(C#CC(C)C)cc2)[C@@H]1CNC(C)=O | > 10 µM (inactive) |
| COc1ccccc1S(=O)(=O)N(C)C[C@@H]1OCc2cn(nn2)CCCC(=O)N([C@@H](C)CO)C[C@@H]1C | > 10 µM (inactive) |
| O=C(c1ccc2c(c1)OCO2)N1C[C@H]2[C@@H](c3ccccc31)[C@H](CO)N2C(=O)CC1CC1 | > 10 µM (inactive) |
